Source listed as ChEMBL document CHEMBL1136038.

- EXPERIMENTAL_TARGET: Substance-P receptor (Homo sapiens, UniProt P25103)
- Sequence (P25103 whole entry): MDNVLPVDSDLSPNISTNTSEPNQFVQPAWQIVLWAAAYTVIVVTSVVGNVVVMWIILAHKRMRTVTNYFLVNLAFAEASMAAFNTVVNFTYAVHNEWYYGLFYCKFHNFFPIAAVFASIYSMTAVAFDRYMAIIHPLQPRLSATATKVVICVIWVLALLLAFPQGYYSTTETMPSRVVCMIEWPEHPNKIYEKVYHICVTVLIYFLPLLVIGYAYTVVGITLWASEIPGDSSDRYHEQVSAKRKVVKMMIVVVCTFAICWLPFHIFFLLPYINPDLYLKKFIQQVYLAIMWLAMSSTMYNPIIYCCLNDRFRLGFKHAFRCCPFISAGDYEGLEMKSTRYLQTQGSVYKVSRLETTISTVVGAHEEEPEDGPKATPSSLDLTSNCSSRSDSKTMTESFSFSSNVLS
One threshold, 40 nM, splits the recorded Ki values: lower ones are class 1, equal or higher ones are class 0.

Request: Confirm or reject: Ki of CS(=O)(=O)N1CC2C(=O)N(c3ccccc3)C(=O)C2C12CCN(C(=O)c1cc(C(F)(F)F)cc(C(F)(F)F)c1)CC2 (stereo unspecified) lies strictly below 40 nM
Result: class 1

Request: Confirm or reject: Ki of COc1ccccc1C(=O)N1CC2C(=O)N(C)C(=O)C2C12CCN(C(=O)c1cc(C(F)(F)F)cc(C(F)(F)F)c1)CC2 (stereo unspecified) lies strictly below 40 nM
Result: class 0

Request: Confirm or reject: Ki of Cc1noc(C)c1S(=O)(=O)N1CCC2(CC1)C1C(=O)N(c3ccccc3)C(=O)C1CN2C(=O)c1cc(C(F)(F)F)cc(C(F)(F)F)c1 (stereo unspecified) lies strictly below 40 nM
Result: class 0

Request: Confirm or reject: Ki of O=C1COc2ccc(S(=O)(=O)N3CCC4(CC3)C3C(=O)N(c5ccccc5)C(=O)C3CN4C(=O)c3cc(C(F)(F)F)cc(C(F)(F)F)c3)cc2N1 (stereo unspecified) lies strictly below 40 nM
Result: class 1

Request: Confirm or reject: Ki of CS(=O)(=O)N1CCC2(CC1)C1C(=O)N(Cc3cc(C(F)(F)F)cc(C(F)(F)F)c3)C(=O)C1CN2C(=O)c1ccc2ccccc2c1 (stereo unspecified) lies strictly below 40 nM
Result: class 0
